- system tested: abc isoform of human TMEM16A channel expressed in CHO cells (Homo sapiens, UniProt Q5XXA6, DEL476-501)
- Construct: expressed in transfected cells; host or cells: CHO cells, doxycycline-inducible expression under Blasticidin/Zeocin selection
- Sequence (Q5XXA6 with tags, fused parts or gaps isoform Q5XXA6-5 DEL539-564): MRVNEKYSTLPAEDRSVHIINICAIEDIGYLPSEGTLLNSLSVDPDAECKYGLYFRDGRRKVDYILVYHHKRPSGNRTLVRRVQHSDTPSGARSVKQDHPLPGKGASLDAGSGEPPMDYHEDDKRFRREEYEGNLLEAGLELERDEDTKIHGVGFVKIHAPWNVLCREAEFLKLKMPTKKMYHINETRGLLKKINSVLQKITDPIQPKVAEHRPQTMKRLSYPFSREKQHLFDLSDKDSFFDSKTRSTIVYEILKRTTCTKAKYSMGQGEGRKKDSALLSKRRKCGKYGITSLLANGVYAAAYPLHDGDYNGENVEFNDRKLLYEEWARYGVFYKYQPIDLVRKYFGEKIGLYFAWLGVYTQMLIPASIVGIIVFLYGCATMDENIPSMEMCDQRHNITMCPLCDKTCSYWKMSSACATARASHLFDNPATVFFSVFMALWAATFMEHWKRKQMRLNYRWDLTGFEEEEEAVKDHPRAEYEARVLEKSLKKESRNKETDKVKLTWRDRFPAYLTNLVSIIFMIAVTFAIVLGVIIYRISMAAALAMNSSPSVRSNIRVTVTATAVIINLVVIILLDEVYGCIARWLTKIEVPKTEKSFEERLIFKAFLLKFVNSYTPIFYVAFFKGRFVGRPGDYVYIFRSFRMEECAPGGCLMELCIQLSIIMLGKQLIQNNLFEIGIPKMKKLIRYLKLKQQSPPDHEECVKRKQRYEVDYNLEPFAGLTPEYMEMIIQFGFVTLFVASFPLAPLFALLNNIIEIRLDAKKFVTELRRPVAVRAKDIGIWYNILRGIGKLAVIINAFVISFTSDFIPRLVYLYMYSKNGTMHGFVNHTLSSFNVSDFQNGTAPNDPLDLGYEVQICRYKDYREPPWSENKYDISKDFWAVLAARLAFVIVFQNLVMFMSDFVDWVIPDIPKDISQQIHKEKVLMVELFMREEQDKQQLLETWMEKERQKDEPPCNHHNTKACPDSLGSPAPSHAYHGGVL
- test method notes: Automated patch clamping (QPatch) assay to measure TMEM16A activity in whole-cell
- Assay type: cell-based
- condition parameters: CHO, maximum current at highest dose relative to reference potentiator at maximal concentration (upper limit) and vehicle (lower limit); read-out: TMEM16A QPATCH assay EC50 V3 Assay Window (% TMEM16A max activation)
assay endpoint: Emax (%)

[[record]]
smi = "COC(=O)[C@@H](NC(=O)c1cnc(-c2cccc(-c3cc(C(=O)NC(C4CC4)C4CC4)[nH]n3)c2)o1)C(C)C"
observed = 113

[[record]]
smi = "CCOC(=O)[C@H](NC(=O)c1cnc(-c2cccc(-c3cc(C(=O)NC(CC)CC)[nH]n3)c2)o1)C(C)C"
observed = 69

[[record]]
smi = "CCC(CC)NC(=O)c1cc(-c2cccc(-c3ncc(C(=O)Nc4cccc(C#N)c4)o3)c2)[nH]n1"
observed = 86

[[record]]
smi = "CCOC(=O)[C@@H](NC(=O)c1cnc(-c2cccc(-c3cc(C(=O)N[C@@H](C)C4CC4)n[nH]3)c2)o1)C(C)C"
observed = 79

[[record]]
smi = "CCC(CC)NC(=O)c1cnc(-c2cccc(-c3cc(C(=O)NCCOC(C)C)n[nH]3)c2)o1"
observed = 96

[[record]]
smi = "CCC(CC)NC(=O)c1cc(-c2cccc(-c3ncc(C(=O)N[C@@H](C)C4CC4)o3)c2)nn1CCO"
observed = 106

[[record]]
smi = "C[C@H](NC(=O)c1cnc(-c2cccc(-c3cc(C(=O)N[C@@H](C)C4CC4)n(CC(C)(C)O)n3)c2)o1)C1CC1"
observed = 73

[[record]]
smi = "C[C@H](NC(=O)c1cnc(-c2cccc(-c3nc(C(=O)N[C@@H](C)C4CC4)n(CCCO)n3)c2)o1)C1CC1"
observed = 140

[[record]]
smi = "C[C@H](NC(=O)c1cc(-c2cccc(-c3ncc(C(=O)N[C@@H](C)C4CC4)o3)c2)[nH]n1)C1CC1"
observed = 32

[[record]]
smi = "COC(=O)C1(NC(=O)c2cnc(-c3cccc(-c4cc(C(=O)N[C@@H](C)C5CC5)[nH]n4)c3)o2)CCC1"
observed = 70

[[record]]
smi = "C[C@@H](NC(=O)c1cnc(-c2cccc(-c3cc(C(=O)N[C@H](C)C4CC4)n(CCO)n3)c2)o1)C1CC1"
observed = 101

[[record]]
smi = "COC(=O)[C@@H](NC(=O)c1cnc(-c2cccc(-c3cc(C(=O)N[C@H](C)C4CC4)n[nH]3)c2)o1)C(C)C"
observed = 98

[[record]]
smi = "CCC(CC)NC(=O)c1cnc(-c2cccc(-c3cc(C(=O)NC(CC)CC)n(CCO)n3)c2)o1"
observed = 85

[[record]]
smi = "C[C@H](NC(=O)c1cc(-c2cccc(-c3ncc(C(=O)N[C@H](C)C4CC4)o3)c2)nn1CCO)C1CC1"
observed = 108


----------
- system tested: abc isoform of human TMEM16A channel expressed in CHO cells (Homo sapiens, UniProt Q5XXA6, DEL476-501)
- Construct: expressed in transfected cells; host or cells: CHO cells, doxycycline-inducible expression under Blasticidin/Zeocin selection
- test method notes: Automated patch clamping (QPatch) assay to measure TMEM16A activity in whole-cell
- Assay type: cell-based
- condition parameters: CHO, maximum current at highest dose relative to reference potentiator at maximal concentration (upper limit) and vehicle (lower limit); read-out: TMEM16A QPATCH assay EC50 V3 Assay Window (% TMEM16A max activation)
Counter-ions that a name gives are not always drawn.
assay endpoint: Emax (%)

[[record]]
compound = "CCC(CC)NC(=O)c1nnc(-c2cccc(-c3ncc(C(=O)NC(CC)CC)o3)c2)[nH]1"
assay_endpoint = "Emax"
unit_abbreviation = "%"
observed = 95

[[record]]
compound = "CCOC(=O)[C@@H](NC(=O)c1cnc(-c2cccc(-c3nnc(C(=O)NC(C4CC4)C4CC4)[nH]3)c2)o1)C(C)C"
assay_endpoint = "Emax"
unit_abbreviation = "%"
observed = 142

[[record]]
compound = "CCC(CC)NC(=O)c1cnc(-c2cccc(-c3cc(C(=O)N[C@@H](C)[C@@H]4CCCO4)n[nH]3)c2)o1 (single isomer, unassigned)"
assay_endpoint = "Emax"
unit_abbreviation = "%"
observed = 79

[[record]]
compound = "CCC(CC)NC(=O)c1cnc(-c2cccc(-c3nnc(C(=O)NCC4CCCCC4)[nH]3)c2)o1"
assay_endpoint = "Emax"
unit_abbreviation = "%"
observed = 88

[[record]]
compound = "CCC(CC)NC(=O)c1cnc(-c2cccc(-c3cc(C(=O)N[C@@H](C)C4CC4)n(CC(O)C(F)(F)F)n3)c2)o1 (stereo partly shown)"
assay_endpoint = "Emax"
unit_abbreviation = "%"
observed = 155

[[record]]
compound = "CCOC(=O)[C@@H](NC(=O)c1cc(-c2cccc(-c3ncc(C(=O)N[C@H](C(=O)OCC)C(C)C)o3)c2)[nH]n1)C(C)C"
assay_endpoint = "Emax"
unit_abbreviation = "%"
observed = 112

[[record]]
compound = "CCOC(=O)[C@H](Cc1ccccc1)NC(=O)c1cnc(-c2cccc(-c3cc(C(=O)NC(CC)CC)n[nH]3)c2)o1"
assay_endpoint = "Emax"
unit_abbreviation = "%"
observed = 61

[[record]]
compound = "CCC(CC)NC(=O)c1cnc(-c2cccc(-c3cc(C(=O)NCC4(N5CCOCC5)CCCCC4)n[nH]3)c2)o1 [Example 3.67, Trifluoroacetate]"
assay_endpoint = "Emax"
unit_abbreviation = "%"
observed = 68

[[record]]
compound = "CC(C)OC(=O)[C@@H](NC(=O)c1cnc(-c2cccc(-c3nnc(C(=O)N[C@@H](C)C4CC4)[nH]3)c2)o1)C(C)C"
assay_endpoint = "Emax"
unit_abbreviation = "%"
observed = 92

[[record]]
compound = "CCC(CC)NC(=O)c1cnc(-c2cccc(-c3cc(C(=O)N[C@@H](COC(C)(C)C)C(=O)OC(C)(C)C)n[nH]3)c2)o1 [Example 3.61, Trifluoroacetate]"
assay_endpoint = "Emax"
unit_abbreviation = "%"
observed = 123

[[record]]
compound = "CCC(CC)NC(=O)c1cnc(-c2cccc(-c3cc(C(=O)N[C@@H](C)C4CC4)n(CC(C)(C)O)n3)c2)o1"
assay_endpoint = "Emax"
unit_abbreviation = "%"
observed = 106

[[record]]
compound = "O=C(NC1CCCC1)c1cnc(-c2cccc(-c3cc(C(=O)NC4CCCC4)n(CCCO)n3)c2)o1"
assay_endpoint = "Emax"
unit_abbreviation = "%"
observed = 201

[[record]]
compound = "CCC(CC)NC(=O)c1cnc(-c2cccc(-c3cc(C(=O)N[C@H](C)C4CCCCC4)n[nH]3)c2)o1"
assay_endpoint = "Emax"
unit_abbreviation = "%"
observed = 82

